System: LOX IMVI
Test: NCI tumour cell line growth inhibition, 48 h
Activity calls are given as the source filed them. No stated cut-off is given here; in the data, active = GI50 up to about 1.1 µM and inactive = higher.
Valid outcomes are listed here; reply with one: active, inactive

For orientation, consider the following solved cases.
Asked: For this compound, state the assay outcome: CCCCCC(=O)OC[n+]1cccc(-c2c(COC(=O)NC(C)C)c(COC(=O)NC(C)C)c3n2CCC3)c1
Given back: inactive

Asked: For this compound, state the assay outcome: O=C(NCC1Nc2ccncc2S(=O)(=O)N1)c1ccc(Br)cc1 (configuration not stated)
Given back: inactive

Asked: For this compound, state the assay outcome: CCOC(CNc1nn2c(C)nnc2s1)OCC
Given back: inactive

More entries:
Asked: For this compound, state the assay outcome: CCN(CC)c1ccc(/C=C/C=C2C(=O)NC(=S)NC2=O)cc1
Given back: inactive

Asked: For this compound, state the assay outcome: CC(C)=CCC/C(C)=C/CC/C(C)=C/C1CCC(=O)C1(C)C (configuration not stated)
Given back: inactive

Asked: For this compound, state the assay outcome: Nc1nc(Cl)cc(NCCCCCCCCCCCCNc2cc(Cl)nc(N)n2)n1
Given back: active

Asked: For this compound, state the assay outcome: Cc1ccc(-c2n[nH]c(CC#N)n2)cc1
Given back: inactive

###

System: MDA-MB-231
Assay: NCI tumour cell line growth inhibition, 48 h
The source made the active and inactive calls. Rule as the data show it: active = GI50 up to about 1.1 µM and inactive = higher.
result.type: GI50

Asked: // fetch GI50; item: O=C(CC(C(=O)c1ccsc1)c1ccsc1)c1ccsc1 (stereo not given) ; system: MDA-MB-231
Given back: > 100 µM (inactive)

Asked: // fetch GI50; item: Cc1ccc(-c2nc(-c3cnccn3)n(C3OC(CO)C(O)C(O)C3O)n2)cc1 (stereo not given) ; system: MDA-MB-231
Given back: > 100 µM (inactive)

Asked: // fetch GI50; item: O=C1/C(=C/c2ccccc2O)N=C(c2ccccc2)N1c1nc2ccccc2s1 ; system: MDA-MB-231
Given back: 18.3 µM (inactive)

Asked: // fetch GI50; item: Cc1c(NC(=O)CSC(=S)N(C)C)c(=O)n(-c2ccccc2)n1C ; system: MDA-MB-231
Given back: > 100 µM (inactive)

Asked: // fetch GI50; item: COC(=O)c1c(OC(C)=O)ccc2c1c1c(n2Cc2ccccc2)C(=O)c2ccccc2C1=O ; system: MDA-MB-231
Given back: 17.1 µM (inactive)

Asked: // fetch GI50; item: C=C=C(CC1CCCCC1=O)S(=O)(=O)c1ccccc1 (stereo not given) ; system: MDA-MB-231
Given back: > 10 µM (inactive)

Asked: // fetch GI50; item: CCN(CC)c1ccc2c(c1)Oc1ccc(N(C(C)=O)c3ccccc3)cc1C21OC(=O)c2ccccc21 (stereo not given) ; system: MDA-MB-231
Given back: > 100 µM (inactive)

Asked: // fetch GI50; item: C=CCCC1CCCNC1=S (stereo not given) ; system: MDA-MB-231
Given back: > 100 µM (inactive)

Asked: // fetch GI50; item: CCOC(CNc1nn2c(C)nnc2s1)OCC ; system: MDA-MB-231
Given back: > 100 µM (inactive)

Kindly review the next compound as well.
Asked: // fetch GI50; item: C/C=C(C)/C=C/CC(C)CCC=C(C)C (stereo not given) ; system: MDA-MB-231
Given back: > 100 µM (inactive)

###

Measured GI50, listed per entry.
System: BT-549
Assay: NCI tumour cell line growth inhibition, 48 h
The source made the active and inactive calls. Cut-off read from the data, not from the text of the source: active = GI50 up to about 1.1 µM and inactive = higher.

Asked: Input Cn1ccnc1Sc1ccc(/C=N\NC(=O)c2cccc(F)c2)cc1[N+](=O)[O-] , output reported GI50.
Given back: 40.8 µM (inactive)

Asked: Input Cn1c2ccccc2c2c3c(c4c5ccccc5n(C)c4c21)C(=O)N(Cc1ccccc1)C3=O , output reported GI50.
Given back: > 100 µM (inactive)

Asked: Input COc1ccc2c(c1O)C13CCN(C)C(C2)C1CCC1(C3)OCCO1 (stereo unspecified) , output reported GI50.
Given back: > 100 µM (inactive)

Asked: Input CC1(C)Oc2ccc3c(=O)c(-c4ccccc4)c(-c4ccccc4)oc3c2C1C(=O)O (stereo unspecified) , output reported GI50.
Given back: > 100 µM (inactive)

Asked: Input Cc1ccc(-c2nc(-c3cnccn3)n(C3OC(CO)C(O)C(O)C3O)n2)cc1 (stereo unspecified) , output reported GI50.
Given back: > 100 µM (inactive)

More entries:
Asked: Input CC(C)NC(=O)OCc1c(COC(=O)NC(C)C)c(-c2cc[n+](COC(=O)Cc3ccccc3)cc2)n2c1CCC2 , output reported GI50.
Given back: > 100 µM (inactive)

Asked: Input Cc1cccc2c(N)c3cccc(C(=O)NCC[N+](C)(C)Cc4sccc4[N+](=O)[O-])c3nc12 , output reported GI50.
Given back: 22 µM (inactive)

Asked: Input O=C(NCC1Nc2ccncc2S(=O)(=O)N1)c1ccc(Br)cc1 (stereo unspecified) , output reported GI50.
Given back: 69.7 µM (inactive)
